- Target entity: glucagon receptor (GCGR), primary cAMP assay (human, UniProt P47871 26-477)
- Sequence (P47871 26-477): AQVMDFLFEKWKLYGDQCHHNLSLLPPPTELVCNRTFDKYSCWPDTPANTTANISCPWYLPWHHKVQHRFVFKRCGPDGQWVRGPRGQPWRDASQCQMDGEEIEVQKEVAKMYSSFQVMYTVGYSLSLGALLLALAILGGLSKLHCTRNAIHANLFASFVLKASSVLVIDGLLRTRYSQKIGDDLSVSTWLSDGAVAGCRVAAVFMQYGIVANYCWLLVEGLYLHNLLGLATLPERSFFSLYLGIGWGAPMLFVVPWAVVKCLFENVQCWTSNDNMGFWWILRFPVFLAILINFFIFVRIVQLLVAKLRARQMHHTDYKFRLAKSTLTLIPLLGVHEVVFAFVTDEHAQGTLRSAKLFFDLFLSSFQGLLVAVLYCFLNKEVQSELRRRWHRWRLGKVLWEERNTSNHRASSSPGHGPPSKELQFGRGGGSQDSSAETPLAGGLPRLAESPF
- Assay details: cell-based or functional assay
Starred links: 1 amine or outer side, 2 acyl side, 3 side chain; linkers in the order of their positions; H or OH if unused. Non-standard residues stand in square brackets, D forms with d. Groups on a side chain read outwards from the residue. Primed or numbered codes have the meaning given here. No end group written: not given here. *: point of attachment. γGlu = O=C(O)[C@H](CCC(=O)[*:2])N[*:1]; Palmitoyl = CCCCCCCCCCCCCCCC(=O)*; αMeF = C[C@](N)(Cc1ccccc1)C(=O)O; αMeK = C[C@](N)(CCCCN)C(=O)O; Lauroyl = CCCCCCCCCCCC(=O)*; αMeS = C[C@](N)(CO)C(=O)O; PEG2′ = not defined here; Aib = CC(C)(N)C(=O)O
Answer each item with its documented Primary assay EC50 (cAMP), n1.
Kindly provide the numeric value in nM only, without the unit symbol.

Consider the binder H[Aib]EGS[αMeF]TSDV[αMeS]SK([PEG2′-PEG2′-γGlu-Palmitoyl])LEGEAA[αMeK]EFIAK([PEG2′-PEG2′-γGlu-Palmitoyl])VVEGG-NH2 [SEQ ID NO: 266] and give its measured Primary assay EC50 (cAMP), n1.
22.2

Entry H[Aib]EGS[αMeF]TSDV[αMeS]SYK([PEG2′-PEG2′-γGlu-Palmitoyl])EGEAA[αMeK]EFIAWK([PEG2′-PEG2′-γGlu-Palmitoyl])VEGG-NH2 [SEQ ID NO: 273] please
21.5

Entry H[Aib]EGS[αMeF]TSDVSK([PEG2′-PEG2′-γGlu-Palmitoyl])FLEGEAAEEFIK([PEG2′-PEG2′-γGlu-Palmitoyl])FVVEGG-NH2 [SEQ ID NO: 247] please
21.6

Entry H[Aib]EGS[αMeF]TSDVSK([PEG2′-PEG2′-γGlu-Palmitoyl])YLEGEAA[αMeK]EFIAK([PEG2′-PEG2′-γGlu-Palmitoyl])VVEGG-NH2 [SEQ ID NO: 254] please
21.9

Entry H[Aib]EGTFTSDVSK([PEG2′-PEG2′-γGlu-Lauroyl])YLEGEAAEEFIK([PEG2′-PEG2′-γGlu-Lauroyl])FVVEGG-NH2 [SEQ ID NO: 238] please
22.4

Entry H[Aib]EGS[αMeF]TSDVSK([PEG2′-PEG2′-γGlu-Lauroyl])YLEGEAA[αMeK]EFIK([PEG2′-PEG2′-γGlu-Lauroyl])WVVEGG-NH2 [SEQ ID NO: 249] please
22.1

Entry H[Aib]EGS[αMeF]TSDK([PEG2′-PEG2′-γGlu-Palmitoyl])SSYLEGEAA[αMeK]EFIAK([PEG2′-PEG2′-γGlu-Palmitoyl])VVEGG-NH2 [SEQ ID NO: 260] please
21.9

Entry H[Aib]EGTFTSDVSK([PEG2′-PEG2′-γGlu-Palmitoyl])FLEGEAAEEFIK([PEG2′-PEG2′-γGlu-Palmitoyl])WVVEGG-NH2 [SEQ ID NO: 243] please
21.5

Entry H[Aib]EGS[αMeF]TSDVSK([PEG2′-PEG2′-γGlu-Palmitoyl])YLEGEAA[αMeK]EFIK([PEG2′-PEG2′-γGlu-Palmitoyl])WVVEGG-NH2 [SEQ ID NO: 251] please
21.3

Entry H[Aib]EGS[αMeF]TSDK([PEG2′-PEG2′-γGlu-Palmitoyl])SSYLEGEAA[αMeK]EFIK([PEG2′-PEG2′-γGlu-Palmitoyl])WVVEGG-NH2 [SEQ ID NO: 259] please
21.4

Entry H[Aib]EGS[αMeF]TSDVSK([PEG2′-PEG2′-γGlu-Lauroyl])YLEGEAA[αMeK]EFIAWK([PEG2′-PEG2′-γGlu-Lauroyl])VEGG-NH2 [SEQ ID NO: 253] please
22.3

Entry H[Aib]EGTFTSDVSK([PEG2′-PEG2′-γGlu-Lauroyl])FLEGEAAEEFIK([PEG2′-PEG2′-γGlu-Lauroyl])WVVEGG-NH2 [SEQ ID NO: 237] please
22.3

Entry H[Aib]EGS[αMeF]TSDVSK([PEG2′-PEG2′-γGlu-Palmitoyl])FLEGEAA[αMeK]EFIK([PEG2′-PEG2′-γGlu-Palmitoyl])FVVEGG-NH2 [SEQ ID NO: 250] please
21.6

Entry H[Aib]EGS[αMeF]TSDK([PEG2′-PEG2′-γGlu-Palmitoyl])SSYLEGEAA[αMeK]EFIAWK([PEG2′-PEG2′-γGlu-Palmitoyl])VEGG-NH2 [SEQ ID NO: 261] please
23

Entry H[Aib]EGS[αMeF]TSDV[αMeS]SK([PEG2′-PEG2′-γGlu-Lauroyl])LEGEAA[αMeK]E[αMeF]IAK([PEG2′-PEG2′-γGlu-Lauroyl])VVEGG-NH2 [SEQ ID NO: 405] please
21.5

Entry H[Aib]EGS[αMeF]TSDVSK([PEG2′-PEG2′-γGlu-Palmitoyl])YLEGEAA[αMeK]EFIAWK([PEG2′-PEG2′-γGlu-Palmitoyl])VEGG-NH2 [SEQ ID NO: 255] please
21.5
